Give TGI for every item shown.
System: CAKI-1 renal
measurement.protocol: NCI tumour cell line growth inhibition, 48 h

Entry `CC(C)[Si](OC1=C(C(=O)N(C)c2ccccc2Cl)CCC1)(C(C)C)C(C)C` : reported TGI = ?
36.5 µM

Likewise for COc1cccc(C2NC(=S)NC(C)=C2C(=O)Nc2ccc(F)c(Cl)c2)c1 (centres undefined) ?
> 50 µM

Likewise for `COC(=O)/C=C1/N=C(N(C)/N=C/c2ccccc2)NC1=O` ?
> 100 µM

Likewise for `COc1ccc(/C=C\c2cc(OC)c(OC)c(OC)c2)cc1OC(=O)c1cccc(Cn2cc(CCOC(=O)c3cccc(Cn4nnc5c4C(=O)c4ccccc4C5=O)c3)nn2)c1` ?
20.1 µM

Likewise for COc1cccc(C2C3=C(COC3=O)N(CCO)c3cc4c(cc32)OCCO4)c1 (centres undefined) ?
> 34.8 µM

Likewise for `CC1=C(c2cc(C(=O)Nc3ccc(Cl)c(Cl)c3)nc(N)n2)Sc2ccccc2N1` ?
> 100 µM

Likewise for `Cc1cc(C(=O)N2CCN(Cc3ccccc3)CC2)c(C)o1` ?
> 100 µM

Likewise for C/C(=N/NC(=O)C(N)=O)C(CC(C(=O)Nc1ccccc1C)/C(C)=N\NC(=O)C(N)=O)C(=O)Nc1ccccc1C (centres undefined) ?
> 100 µM

Likewise for `N=C(N)n1[nH]c2c(c1=O)CCCC2` ?
> 100 µM

----------
System: TK-10 renal
measurement.protocol: NCI tumour cell line growth inhibition, 48 h
assay.endpoint: GI50

Entry `O=C1/C(=C/c2ccccc2)CCC/C1=C\c1ccccc1` : reported GI50 = ?
6.12 µM

Likewise for `COc1cc2c3c(n(CCN(C)C)c(=O)c2cc1OC)-c1cc2c(cc1C3=O)OCO2` ?
46.2 µM

Likewise for `CN(C)CCCNc1nccc(-c2c(-c3ccc(F)cc3)nn3cc(C(F)(F)F)ccc23)n1` ?
12.9 µM

Likewise for `C#COc1cccc(Nc2ncnc3ncc(NC(=O)CCl)cc23)c1` ?
62 µM

Likewise for `CCC[CH2][Sn]([CH2]CCC)([O]C(=O)c1nccnc1N)[O]C(=O)c1nccnc1N` ?
0.742 µM

Likewise for `Oc1cc(O)c2c(=S)cc(-c3ccc(Cl)cc3)oc2c1` ?
4.08 µM

Likewise for `CCCN(CCC)CCCNC(=O)c1cc2c(-c3ccc(OC)c(OC)c3)nn(C)c2s1` ?
40.9 µM

Likewise for COc1cc(C2CC(c3cc(C)ccc3C)=NN2c2ccc(S(=O)(=O)NC(=O)NCc3ccccc3)cc2)cc(OC)c1OC (centres undefined) ?
4.74 µM

Likewise for `O=C1/C(=C\c2coc3ccccc3c2=O)c2ccccc2N1c1c(Cl)cccc1Cl` ?
3.29 µM

----------
Tested on: HOP-62 NSCLC
measurement.protocol: NCI tumour cell line growth inhibition, 48 h; in the data active means GI50 below about 0.43 µM; inactive means the rest
Assign a class; possible classes are active, inactive

Can you look up the reported call for `N#Cc1cccc(NC(=O)c2oc3ccccc3c2-c2cnn(-c3ccccc3)c2)c1` for me?
inactive

Likewise for `CC[O-].Cc1ccc2cccc([O-])c2n1.Cc1ccc2cccc([O-])c2n1.Cc1ccc2cccc([O-])c2n1.[Ti+4]` ?
inactive

Likewise for OC(COc1cccc2ccccc12)CN1CCN(c2ccccc2)CC1 (centres undefined) ?
inactive

Likewise for `CC[CH2][Sn]([Cl])([Cl])[CH2]CC` ?
inactive

Likewise for COc1cc(C2CC(c3cc(C)ccc3C)=NN2c2ccc(S(=O)(=O)NC(=O)NCc3ccccc3)cc2)cc(OC)c1OC (centres undefined) ?
inactive

Likewise for `C=C(C)[C@@H]1CCC2=C[C@@H](OC2=O)[C@@H](C(=C)C)C(=O)/C=C(/C)C(=O)C1` ?
inactive

Likewise for `COc1ccc(-c2cc(/C=C3\C(=O)Nc4ccc(OC)cc43)[nH]n2)cc1` ?
inactive

Likewise for `N#Cc1c(-c2ccccc2)cc(-c2ccccc2)n(CCCCC(=O)NO)c1=O` ?
inactive

Likewise for `COC(=O)[C@@]1(C)CC[C@]2(C)CC[C@]3(C)C4=CC=C5C(=CC(=O)C(O)=C5C)[C@]4(C)CC[C@@]3(C)[C@@H]2C1` ?
inactive

Likewise for `Clc1ccc(-c2nn3ncccc3c2-c2ccnc(Nc3ccccc3)n2)cc1` ?
inactive

Likewise for `COc1cc([C@@H]2c3cc4c(cc3[C@@H](O[C@@H]3O[C@@H]5CO[C@@H](c6cccs6)O[C@H]5[C@H](O)[C@H]3O)[C@H]3COC(=O)[C@H]23)OCO4)cc(OC)c1O` ?
active

Likewise for CC(=O)OCC1OC(OC2=C(CC=C(Cl)Cl)C(=O)c3ccccc3C2=O)C(OC(C)=O)C(OC(C)=O)C1OC(C)=O (centres undefined) ?
inactive

Likewise for `COC(=O)Nc1nc2cc3c(cc2s1)OCCO3` ?
inactive

Likewise for CC1OC(OC2CC(O)C3(CO)C4C(O)CC5(C)C(C6=CC(=O)OC6)CCC5(O)C4CCC3(O)C2)C(O)C(O)C1O (centres undefined) ?
active

----------
Give TGI for every item shown.
Test system: NCI-H460 lung
measurement.protocol: NCI tumour cell line growth inhibition, 48 h

Entry `Nc1ccccc1NC(=O)c1ccc(CN2CCC/C(=C\c3cccc(Cl)c3)C2=O)cc1` : reported TGI = ?
> 100 µM

Likewise for `N#Cc1c(NC(=O)CN2CCOCC2)sc2c1CCCC2` ?
> 25 µM

Likewise for CC1(C)C2CCC3(OCCO3)C1C1OC12 (centres undefined) ?
> 100 µM

Likewise for `COc1cc2c(cc1OC)C1(c3ccccc3)CN(C2)Cc2cc(OC)c(OC)cc21` ?
> 100 µM

----------
Give GI50 for every item shown.
Test system: SK-MEL-2 melanoma
measurement.protocol: NCI tumour cell line growth inhibition, 48 h

Entry CC1=C([Se]CC(OC(=O)[C@@H](CO)NC(=O)OC(C)(C)C)C(=O)NC(C)(C)C)C(=O)c2ccccc2C1=O (stereo partly drawn) : reported GI50 = ?
2200 nM

Likewise for `O=C(c1cccs1)c1c(C(F)(F)F)n([O-])c2ccc(F)cc2[n+]1=O` ?
841 nM

Likewise for `CN(C)CCN=Cc1c2ccccc2c(=O)n2c1oc1ccccc12` ?
16600 nM

Likewise for CC[C@@H](C(=O)[C@@H](C)[C@@H](O)[C@H](C)[C@@H]1O[C@@H]([C@@H](CC)C(=O)O)CC[C@@H]1C)[C@H]1OC2(C=C[C@@H](O)[C@]3(CC[C@@](C)([C@H]4CC[C@](O)(CC)[C@H](C)O4)O3)O2)[C@H](C)C[C@@H]1C (stereo partly drawn) ?
622 nM

Likewise for `COc1cc([C@@H]2c3cc4c(cc3[C@@H](O[C@@H]3O[C@@H]5CO[C@@H](c6cccs6)O[C@H]5[C@H](O)[C@H]3O)[C@H]3COC(=O)[C@H]23)OCO4)cc(OC)c1O` ?
1330 nM

Likewise for `CCCN(CCC)CCCNC(=O)c1cc2c(-c3ccc(OC)c(OC)c3)nn(C)c2s1` ?
25200 nM

Likewise for `COc1cc2c3c(n(CCN(C)C)c(=O)c2cc1OC)-c1cc2c(cc1C3=O)OCO2` ?
> 96100 nM

Likewise for `CC[CH2][Sn]([Cl])([Cl])[CH2]CC` ?
10800 nM

----------
Tested on: HOP-62 NSCLC
measurement.protocol: NCI tumour cell line growth inhibition, 48 h
Give TGI for every item shown.

Entry COc1ccc2c(c1)nc1n2C(c2c(F)cccc2Cl)SC1 (stereo not given) : reported TGI = ?
> 44.6 µM

Likewise for `CC(=O)OC[C@]12CC[C@@H]([C@@H](C)C(N)=O)[C@@H]1[C@H]1CC[C@@H]3[C@@]4(C)CC[C@H](OC(C)=O)C(C)(C)[C@@H]4CC[C@@]3(C)[C@]1(C)CC2` ?
26.6 µM

Likewise for C=C1CCC2C3(C)COC(c4ccc(SC)cc4)OC3CCC2(C)C1C/C=C1/C(=O)OCC1O (stereo not given) ?
32.8 µM

Likewise for `Cc1c[nH]c(C(=O)O)c1-c1ccc2c(-c3ccccc3)nc3ccccc3n12` ?
46.4 µM

Likewise for `O=c1cc(-c2ccccc2)oc2ccc(Oc3nnnn3-c3ccccc3)cc12` ?
> 82.3 µM

Likewise for COC(=O)C(Cc1ccccc1I)C1=CCC2(CC1)OCCO2 (stereo not given) ?
> 100 µM

Likewise for `Cc1ccc2c(c1)[nH]c(=S)n2C=C1C(=O)CC(C)(C)CC1=O` ?
> 100 µM

Likewise for `C[C@H]1CC[C@@H]2[C@@H](C)[C@H]3[C@H](C[C@H]4[C@@H]5CC=C6C[C@@H](O)CC[C@]6(C)[C@H]5C[C@H](O)[C@]34C)N2C1` ?
> 100 µM

Likewise for `NC(=S)N1N=C2c3ccccc3CC[C@H]2[C@@H]1c1cccs1` ?
> 100 µM

Likewise for CNC(C)C(=O)N[C@H](C(=O)N1CCC[C@@H]1CN(CCc1ccccc1)C(=O)C(F)(F)F)[C@H](C)OCC#CC#CCO[C@H](C)[C@H](NC(=O)[C@H](C)NC)C(=O)N1CCC[C@H]1CN(CCc1ccccc1)C(=O)C(F)(F)F (stereo not given in full) ?
2.46 µM
